Source of measurements: PubChem BioAssay AID686993

- assayed.target: UDP-N-acetylbacillosamine N-acetyltransferase PglD (Campylobacter jejuni)
- assay: PglD acetyltransferase inhibitors, dose response, biochemical, DTNB absorbance, dry powder samples, set 4 (AID 686993)
- condition.description: purified PglD, DTNB absorbance 412 nm, CoA release
Records with an inconclusive call do not appear.
compounds and their reported AC50

Guide cases for AC50, answers given:
# line.notation, AC50
rows = [
    ("Cc1c(C(=O)O)sc2nc(/C=C/c3ccc4[nH]ccc4c3)[nH]c(=O)c12", "3.97 µM"),
    ("Cc1c(C(=O)O)sc2nc(/C=C/c3ccc4ccccc4c3)[nH]c(=O)c12", "30.5 µM"),
    ("Cc1c(C(=O)O)sc2nc(/C=C/c3ccc4cc[nH]c4c3)[nH]c(=O)c12", "7.87 µM"),
    ("Cc1c(C(=O)O)sc2nc(/C=C/c3ccc(N)nc3)[nH]c(=O)c12", "14.6 µM"),
    ("Cc1c(C(=O)O)sc2nc(/C=C/C=C/c3ccccc3)[nH]c(=O)c12", "18.2 µM"),
    ("Cc1c(C(=O)O)sc2nc(/C=C/c3cccc(C(F)(F)F)c3)[nH]c(=O)c12", "29.1 µM"),
    ("Cc1c(C(=O)O)sc2nc(/C=C/c3cc4ccccc4cn3)[nH]c(=O)c12", "4.54 µM"),
    ("Cc1c(C(=O)O)sc2nc(/C=C/c3ccccc3)[nH]c(=O)c12", "8.04 µM"),
]

// AC50 value for Cc1c(C(=O)O)sc2nc(/C=C/c3cccc(C(N)=O)c3)[nH]c(=O)c12 : 17.6 µM

// AC50 value for Cc1c(C(=O)O)sc2nc(CCc3cccc(O)c3)[nH]c(=O)c12 : 8.28 µM

// AC50 value for Cc1c(C(=O)O)sc2nc(/C=C/c3cccc(F)c3)[nH]c(=O)c12 : 7.23 µM

// AC50 value for Cc1c(C(=O)O)sc2nc(/C=C/c3ccccn3)[nH]c(=O)c12 : 2.58 µM
